Molecular target: Lsp from E. coli (Escherichia coli)
Construct: The full-length Lsp clone from E. coli (residues 1-164); His6 with enterokinase cleavage site (pET19b) (N); made in house; host or cells: E. coli Lemo21 (DE3), pET19b vector
Sequence (P00804 whole entry, the tested form may be a part): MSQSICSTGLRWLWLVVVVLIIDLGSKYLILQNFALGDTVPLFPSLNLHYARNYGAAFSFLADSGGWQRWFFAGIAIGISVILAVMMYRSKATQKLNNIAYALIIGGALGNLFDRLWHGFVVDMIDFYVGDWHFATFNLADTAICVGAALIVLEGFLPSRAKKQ
Test: Lsp FRET activity assay, IC50 determination
Assay type: biochemical
Settings: Table 6; read-out: IC50
metric: pIC50
Keep it numeric: pIC50 is minus log10 of the concentration in mol/L.

Field: example entries. Status: answers known.
- smiles input: "CCC(CC)c1nnc(NC(=O)c2cc(Cl)c(OC3CCCC3)cc2[N+](=O)[O-])s1"
  recorded number: 6.96
- smiles input: "COC(=O)CCSCCCCCc1nnc(NC(=O)c2cc(Cl)c(OC3CCCC3)cc2[N+](=O)[O-])s1"
  recorded number: 5.49
- smiles input: "O=C(O)CCSCCCCCc1nnc(NC(=O)c2cc(Cl)c(OC3CCCC3)cc2[N+](=O)[O-])s1"
  recorded number: 4.96

Record request: pIC50 value, item `O=C(Nc1nnc(CCCCCCl)s1)c1cc(Cl)c(OC2CCCC2)cc1[N+](=O)[O-]`
5.42
